// data source = patent US12599582B2

# Test system: HBV
# Experimental details: HBV-DNA Antiviral Assay Using HepG2.2.15 Cells (extracellular HBV DNA by qPCR)
# Type: cell-based, hepatitis B virus (HBV)
# Recorded conditions: Hepatitis B virus; HBV DNA inhibition, HepG2.2.15 cells, extracellular HBV DNA by qPCR; read-out: EC50
Observation type: EC50

Q. Give reported EC50 value for "C#CCNC(=O)C(=O)c1c(F)c(C(=O)Nc2ccc(F)c(C#N)c2)n(C)c1Cl"
A. 100 to 1000 nM

Q. Give reported EC50 value for "Cc1c(C(=O)C(=O)NC(C)(C)c2ccncn2)c(C)n(C)c1C(=O)Nc1ccc(F)c(C(F)(F)F)c1"
A. < 1 nM

Q. Give reported EC50 value for C=C[C@@](C)(NC(=O)C(=O)c1c(C)c(C(=O)Nc2ccc(F)c(C#N)c2)n(C)c1C)C(F)(F)F [Compound 95a]
A. 1 to 10 nM

Q. Give reported EC50 value for Cc1c(C(=O)C(=O)NC2(C#CC(F)(F)F)CC(O)C2)c(C)n(C)c1C(=O)Nc1ccc(F)c(C#N)c1 (centres unmarked)
A. 100 to 1000 nM

Q. Give reported EC50 value for Cc1c(C(=O)C(=O)NC2(C#C[C@@H](C)O)COC2)c(C)n(C)c1C(=O)Nc1ccc(F)c(C#N)c1 [Compound 94a]
A. 10 to 100 nM

Q. Give reported EC50 value for C=C[C@@](C)(CO)NC(=O)C(=O)c1c(C)c(C(=O)Nc2ccc(F)c(C#N)c2)n(C)c1C [Compound 72b]
A. 1 to 10 nM

Q. Give reported EC50 value for "Cc1c(C(=O)C(=O)NC2(c3cn[nH]c3)COC2)c(C)n(C)c1C(=O)Nc1ccc(F)c(C(F)(F)F)c1"
A. < 1 nM

Q. Give reported EC50 value for "C#CC1(NC(=O)C(=O)c2c(C)c(C(=O)Nc3ccc(F)c(C#N)c3)n(C)c2C)CCCC1"
A. 1 to 10 nM

Q. Give reported EC50 value for "Cc1c(C(=O)C(=O)NC(C)(C)c2ccnn2C)c(C)n(C)c1C(=O)Nc1ccc(F)c(C#N)c1"
A. 1 to 10 nM

Q. Give reported EC50 value for "Cc1c(C(=O)C(=O)NC(C)(C)c2ccc(F)cn2)c(C)n(C)c1C(=O)Nc1ccc(F)c(C#N)c1"
A. 1 to 10 nM

Q. Give reported EC50 value for C=C[C@](C)(CO)NC(=O)C(=O)c1c(C)c(C(=O)Nc2ccc(F)c(C(F)(F)F)c2)n(C)c1C [Compound 69a]
A. 1 to 10 nM

Q. Give reported EC50 value for C#C[C@H](COC)NC(=O)C(=O)c1c(C)c(C(=O)Nc2ccc(F)c(C#N)c2)n(C)c1C [Compound 28b]
A. 1 to 10 nM

Q. Give reported EC50 value for "C#CCNC(=O)C(=O)c1cc(C(=O)Nc2ccc(F)c(C#N)c2)n(C)c1"
A. > 1000 nM

Q. Give reported EC50 value for "C#CC1(NC(=O)C(=O)c2c(C)c(C(=O)Nc3ccc(Cl)c(Br)c3)n(C)c2C)CC(F)(F)C1"
A. 1 to 10 nM

Q. Give reported EC50 value for C#C[C@@H](NC(=O)C(=O)c1c(C)c(C(=O)Nc2ccc(F)c(C#N)c2)n(C)c1C)C1CC1 [Compound 23b]
A. < 1 nM

Q. Give reported EC50 value for "C=CC1(NC(=O)C(=O)c2c(Cl)c(C(=O)Nc3ccc(F)c(C#N)c3)n(C)c2C)CC(F)(F)C1"
A. < 1 nM

Q. Give reported EC50 value for "Cc1c(C(=O)C(=O)NC(C)(C)c2ccncc2)c(C)n(C)c1C(=O)Nc1ccc(F)c(C(F)(F)F)c1"
A. 1 to 10 nM

Q. Give reported EC50 value for "Cc1c(C(=O)C(=O)NC(C)(C)c2nnco2)c(C)n(C)c1C(=O)Nc1ccc(F)c(C#N)c1"
A. 1 to 10 nM

Q. Give reported EC50 value for C=C[C@](C)(CO)NC(=O)C(=O)c1c(C)c(C(=O)Nc2ccc(F)c(C#N)c2)n(C)c1C [Compound 72a]
A. 1 to 10 nM

Q. Give reported EC50 value for "C=CC1(NC(=O)C(=O)c2c(C)c(C(=O)Nc3ccc(F)c(C#N)c3)n(C)c2C)CC(F)(F)C1"
A. 1 to 10 nM

Q. Give reported EC50 value for "Cc1c(C(=O)C(=O)NC(C)(C)c2cnn(C3CC3)c2)c(C)n(C)c1C(=O)Nc1ccc(F)c(C#N)c1"
A. 1 to 10 nM

Q. Give reported EC50 value for "Cc1c(C(=O)C(=O)NC2(c3c[nH]cn3)COC2)c(C)n(C)c1C(=O)Nc1ccc(F)c(C(F)(F)F)c1"
A. < 1 nM

Q. Give reported EC50 value for "Cc1c(C(=O)C(=O)NC(C)(C)c2ccc[nH]c2=O)c(C)n(C)c1C(=O)Nc1ccc(F)c(C#N)c1"
A. 1 to 10 nM

Q. Give reported EC50 value for "Cc1c(C(=O)C(=O)NC(C)(C)c2c[nH]cn2)c(C)n(C)c1C(=O)Nc1ccc(F)c(C#N)c1"
A. 1 to 10 nM

Q. Give reported EC50 value for "Cc1c(C(=O)C(=O)NC(C)(C)c2ccc3[nH]cnc3c2)c(C)n(C)c1C(=O)Nc1ccc(F)c(C#N)c1"
A. 1 to 10 nM

Q. Give reported EC50 value for "Cc1c(C(=O)C(=O)NC2(c3c[nH]cn3)COC2)c(C)n(C)c1C(=O)Nc1ccc(F)c(C#N)c1"
A. 1 to 10 nM

Q. Give reported EC50 value for "C#CCNC(=O)C(=O)c1cn(C)c(C(=O)Nc2ccc(F)c(C#N)c2)c1F"
A. 100 to 1000 nM

Q. Give reported EC50 value for C=C[C@](CO)(NC(=O)C(=O)c1c(C)c(C(=O)Nc2ccc(F)c(C(F)(F)F)c2)n(C)c1C)C(F)(F)F [Compound 80a]
A. 1 to 10 nM

Q. Give reported EC50 value for C=C[C@H](NC(=O)C(=O)c1c(C)c(C(=O)Nc2ccc(F)c(C#N)c2)n(C)c1C)C(F)(F)F [Compound 36a]
A. < 1 nM
